Recorded values, source ChEMBL document CHEMBL3808318.

Target: Dihydroorotate dehydrogenase (quinone), mitochondrial (Homo sapiens, UniProt Q02127)
Sequence (Q02127 whole entry): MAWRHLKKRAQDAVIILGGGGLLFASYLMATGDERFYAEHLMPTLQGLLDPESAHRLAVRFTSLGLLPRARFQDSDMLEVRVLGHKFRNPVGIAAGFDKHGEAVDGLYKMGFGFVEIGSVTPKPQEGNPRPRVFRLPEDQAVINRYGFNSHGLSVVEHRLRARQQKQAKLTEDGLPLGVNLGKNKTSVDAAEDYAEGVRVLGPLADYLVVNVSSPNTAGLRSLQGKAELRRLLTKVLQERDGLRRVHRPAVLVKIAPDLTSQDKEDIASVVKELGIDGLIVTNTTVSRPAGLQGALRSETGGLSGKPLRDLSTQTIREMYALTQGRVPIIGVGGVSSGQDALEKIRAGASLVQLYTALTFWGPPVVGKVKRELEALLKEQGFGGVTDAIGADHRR
Assay: Inhibition of human DHODH assessed as decrease in DCIP at 10 uM using dihydroorotate as substrate measured every 30 seconds for 6 mins
What inhibition was measured for each of the following?
Unit % implied. Number only.

With Dihydroorotate dehydrogenase (quinone), mitochondrial (Homo sapiens, UniProt Q02127) as the test system, CCCNC(=O)c1cccc2nc(-c3cc(Br)nn3-c3ncccc3Cl)oc12 showed inhibition of 26.6

With Dihydroorotate dehydrogenase (quinone), mitochondrial (Homo sapiens, UniProt Q02127) as the test system, O=C(Nc1ccccc1Br)c1cccc2nc(-c3cc(Br)nn3-c3ncccc3Cl)[nH]c12 showed inhibition of 27.6

With Dihydroorotate dehydrogenase (quinone), mitochondrial (Homo sapiens, UniProt Q02127) as the test system, O=C(Nc1ccc(C(F)(F)F)cc1)c1cccc2nc(-c3cc(Br)nn3-c3ncccc3Cl)[nH]c12 showed inhibition of 36.3

With Dihydroorotate dehydrogenase (quinone), mitochondrial (Homo sapiens, UniProt Q02127) as the test system, Cc1ccccc1NC(=O)c1cccc2nc(-c3cc(Br)nn3-c3ncccc3Cl)[nH]c12 showed inhibition of 73.9

With Dihydroorotate dehydrogenase (quinone), mitochondrial (Homo sapiens, UniProt Q02127) as the test system, COc1cccc(OC)c1NC(=O)c1cccc2nc(-c3cc(Br)nn3-c3ncccc3Cl)[nH]c12 showed inhibition of 0

With Dihydroorotate dehydrogenase (quinone), mitochondrial (Homo sapiens, UniProt Q02127) as the test system, CCCNC(=O)c1cccc2oc(-c3cc(Br)nn3-c3ncccc3Cl)nc12 showed inhibition of 30.1

With Dihydroorotate dehydrogenase (quinone), mitochondrial (Homo sapiens, UniProt Q02127) as the test system, O=C(Nc1ccc(F)c(F)c1F)c1cccc2nc(-c3cc(Br)nn3-c3ncccc3Cl)[nH]c12 showed inhibition of 31.9

With Dihydroorotate dehydrogenase (quinone), mitochondrial (Homo sapiens, UniProt Q02127) as the test system, O=C(NCc1ccccc1)c1cccc2nc(-c3cc(Br)nn3-c3ncccc3Cl)[nH]c12 showed inhibition of 34.9

With Dihydroorotate dehydrogenase (quinone), mitochondrial (Homo sapiens, UniProt Q02127) as the test system, Cc1cccc(NC(=O)c2cccc3nc(-c4cc(Br)nn4-c4ncccc4Cl)[nH]c23)c1 showed inhibition of 18.9

With Dihydroorotate dehydrogenase (quinone), mitochondrial (Homo sapiens, UniProt Q02127) as the test system, O=C(NCc1ccccn1)c1cccc2nc(-c3cc(Br)nn3-c3ncccc3Cl)[nH]c12 showed inhibition of 27.6

With Dihydroorotate dehydrogenase (quinone), mitochondrial (Homo sapiens, UniProt Q02127) as the test system, COc1ccc(C(F)(F)F)cc1NC(=O)c1cccc2nc(-c3cc(Br)nn3-c3ncccc3Cl)[nH]c12 showed inhibition of 55.2

With Dihydroorotate dehydrogenase (quinone), mitochondrial (Homo sapiens, UniProt Q02127) as the test system, O=C(NCc1ccc(Cl)cc1)c1cccc2nc(-c3cc(Br)nn3-c3ncccc3Cl)[nH]c12 showed inhibition of 44

With Dihydroorotate dehydrogenase (quinone), mitochondrial (Homo sapiens, UniProt Q02127) as the test system, Cc1ccc(NC(=O)c2cccc3nc(-c4cc(Br)nn4-c4ncccc4Cl)[nH]c23)c(C)c1 showed inhibition of 48.8

With Dihydroorotate dehydrogenase (quinone), mitochondrial (Homo sapiens, UniProt Q02127) as the test system, CNC(=O)c1cccc2nc(-c3cc(Br)nn3-c3ncccc3Cl)[nH]c12 showed inhibition of 14.1

With Dihydroorotate dehydrogenase (quinone), mitochondrial (Homo sapiens, UniProt Q02127) as the test system, C/C(O)=C(\C#N)C(=O)Nc1ccc(C(F)(F)F)cc1 showed inhibition of 64

With Dihydroorotate dehydrogenase (quinone), mitochondrial (Homo sapiens, UniProt Q02127) as the test system, O=C(Nc1ccccc1)c1cccc2nc(-c3cc(Br)nn3-c3ncccc3Cl)[nH]c12 showed inhibition of 49.4

With Dihydroorotate dehydrogenase (quinone), mitochondrial (Homo sapiens, UniProt Q02127) as the test system, CCNC(=O)c1cccc2nc(-c3cc(Br)nn3-c3ncccc3Cl)[nH]c12 showed inhibition of 24.9

With Dihydroorotate dehydrogenase (quinone), mitochondrial (Homo sapiens, UniProt Q02127) as the test system, CCCNC(=O)c1cccc2nc(-c3cc(Br)nn3-c3ncccc3Cl)[nH]c12 showed inhibition of 23.4

With Dihydroorotate dehydrogenase (quinone), mitochondrial (Homo sapiens, UniProt Q02127) as the test system, O=C(Nc1ccccc1F)c1cccc2nc(-c3cc(Br)nn3-c3ncccc3Cl)[nH]c12 showed inhibition of 38.8
